- TARGET: EGFRvIII-Fc fusion antigen (human, UniProt P00533 25-645)
- ASSAY_METHOD_TEXT: ELISA on coated EGFRvIII-Fc; TandAb detected with Protein L-HRP, Abs(450nm) [EGFRvIII binding]
# EC50 (read off the curve) listing for each entry below
QUANTITY_MEASURED: EC50 (read off the curve) (nM)

BINDER	QUANTITY_MEASURED	MEASUREMENT_UNIT	DATA_VALUE
EGFRvIII/CD3 TandAb with EGFRvIII binding domain ABC471, domain order (iv) VH^EGFRvIII-VL^CD3-VH^CD3-VL^EGFRvIII (bispecific antibody, part only; not given: CD3 domain and linkers, not shown: small tags and cut ends) chain, part: EVQLVQSGAEVKKPGESLKISCKGSGYSFNSYWIGWVRQMPGKGLEWMGIIYPGDSANRYSPSFQGQVTISADKSISTAYLQWSSLKASDTAMYYCARLGSSWTNDAFDIWGQGTLVTVSSSYELTQPPSVSVSPGQTARITCSGDYLPKQYAYWYQQKPGQAPVLVIYKDTERPSGIPERFSGSSSGTTVTLTISGVQAEDEADYYCQSVDSSHPSVVFGGGTKLTVL	EC50 (read off the curve)	nM	0.6
EGFRvIII/CD3 TandAb with EGFRvIII binding domain ABC469, domain order (iv) VH^EGFRvIII-VL^CD3-VH^CD3-VL^EGFRvIII (bispecific antibody, part only; not given: CD3 domain and linkers, not shown: small tags and cut ends) chain, part: EVQLVQSGAEVKKPGESLKISCKGSGYSFNSYWIGWVRQMPGKGLEWMGIIYPGDSDTRYSPSFQGQVTISADKSISTAYLQWSSLKASDTAMYYCARLGSSWTNDAFDIWGQGTLVTVSSLTQPPSYESVSVSPGQTARITCSGDTLPKQYAYWYQQKPGQAPVLVIYKDSERPSGIPERFSGSSSGTTVTLTISGVQAEDEADYYCQSVDVSGTYVVFGGGTKLTVL	EC50 (read off the curve)	nM	0.6
EGFRvIII/CD3 TandAb with EGFRvIII binding domain ABC469, domain order (i) VL^CD3(v64)-VH^EGFRvIII-VL^EGFRvIII-VH^CD3(v64) (bispecific antibody, part only; not given: CD3 v64 domain and linkers, not shown: small tags and cut ends) chain, part: EVQLVQSGAEVKKPGESLKISCKGSGYSFNSYWIGWVRQMPGKGLEWMGIIYPGDSDTRYSPSFQGQVTISADKSISTAYLQWSSLKASDTAMYYCARLGSSWTNDAFDIWGQGTLVTVSSLTQPPSYESVSVSPGQTARITCSGDTLPKQYAYWYQQKPGQAPVLVIYKDSERPSGIPERFSGSSSGTTVTLTISGVQAEDEADYYCQSVDVSGTYVVFGGGTKLTVL	EC50 (read off the curve)	nM	1
EGFRvIII/CD3 TandAb with EGFRvIII binding domain ABC470, domain order (iv) VH^EGFRvIII-VL^CD3-VH^CD3-VL^EGFRvIII (bispecific antibody, part only; not given: CD3 domain and linkers, not shown: small tags and cut ends) chain, part: EVQLVQSGAEVKKPGESLKISCKGSGYSFNSYWIGWVRQMPGKGLEWMGIIYPGDSDTRYSPSFQGQVTISADKSISTAYLQWSSLKASDTAMYYCARLGSSWTNDAFDIWGQGTLVTVSSSYELTQPPSVSVSPGQTARITCSGDALDKQYAYWYQQKPGQAPVLVIYKDSERPSGIPERFSGSSSGTTVTLTISGVQAEDEADYYCQSVDSSETYVVFGGGTKLTVL	EC50 (read off the curve)	nM	0.9
